Tested on: Moraxella catarrhalis
test description: MIC against Gram-negative bacteria: Moraxella catarrhalis
Type: cell-based
study conditions: 96-well plate, 5×10^5 CFU/mL, 37° C., 10 h
recorded endpoint: MIC against M. catarrhalis (µg/mL)
# output: bare number, implied unit µg/mL

Study these solved cases before continuing.
substance	recorded endpoint	measured number
PRT469 (NCSTTCFNGGTCFYPGKCICPPGLEGEQCE; listed as Homo sapiens)	MIC against M. catarrhalis	50
PRT567 (CTCDPAGSQNEGICDSYTDFSTGLIAGQCRCKLNVEGEHCDVCKEGFYDLSSEDPFGCKS; listed as Homo sapiens)	MIC against M. catarrhalis	50
PRT577 (CACHPSRARGPTCNEFTGQCHCRAGFGGRTCSECQELHWGDPGLQCHA; listed as Homo sapiens)	MIC against M. catarrhalis	12.5
PRT535 (CQCDIGGALSSMCSGPSGVCQCREHVVGKVCQRPENNYYFPDLHH; listed as Homo sapiens)	MIC against M. catarrhalis	12.5

MIC against M. catarrhalis lookup needed for PRT569 (CDCDLGGALNNSCFAESGQCSCRPHMIGRQC; listed as Homo sapiens) , thanks.
25

MIC against M. catarrhalis lookup needed for PRT461 (DVDECAWDAHLCREGQRCVNLLGSYRCLPDCGPGFRVADGAGCE; listed as Homo sapiens) , thanks.
25

MIC against M. catarrhalis lookup needed for PRT512 (CACPLISSSNNFSPSCVAEGLDDYRCTACPRGYEGQYCERCAPGYTGSPGNPGGSCQE; listed as Homo sapiens) , thanks.
25

MIC against M. catarrhalis lookup needed for PRT580 (CDCDPMGSQDGGRCDSHDDPALGLVSGQCRCKEHVVGTRCQQCRDGFFGLSISDRLGCRR; listed as Homo sapiens) , thanks.
50

MIC against M. catarrhalis lookup needed for PRT509 (CNCSTVGSLDFQCNVNTGQCNCHPKFSGAKCTECSRGHWNYPRCNL; listed as Homo sapiens) , thanks.
12.5

MIC against M. catarrhalis lookup needed for PRT501 (CGCNPVGSASDEPCTGPCVCKENVEGKACDRCKPGFYNLKEKNPRGCSE; listed as Homo sapiens) , thanks.
25

MIC against M. catarrhalis lookup needed for PRT490 (CASAPCRNGGVCREGWNRFICDCIGTGFLGRVCE; listed as Homo sapiens) , thanks.
12.5

MIC against M. catarrhalis lookup needed for PRT507 (CICYGHARACPLDPATNKSRCECEHNTCGDSCDQCCPGFHQKPWRAGTFLTKTECEA; listed as Homo sapiens) , thanks.
50

MIC against M. catarrhalis lookup needed for PRT484 (RCEDLDGVVCGGHGTCSCGRCVCERGWFGKLCQ; listed as Homo sapiens) , thanks.
50

MIC against M. catarrhalis lookup needed for PRT467 (ECPGGCRNGGFCNERRICECPDGFHGPHCE; listed as Homo sapiens) , thanks.
25

MIC against M. catarrhalis lookup needed for PRT553 (CQCPGGRCDPHTGRCNCPPGLSGERCDTCSQQHQVPVPGGPVGHSIHCEV; listed as Homo sapiens) , thanks.
12.5

MIC against M. catarrhalis lookup needed for PRT482 (ECIDDETEEICGGHGKCYCGNCYCKAGWHGDKCE; listed as Homo sapiens) , thanks.
12.5

MIC against M. catarrhalis lookup needed for PRT513 (CECDPYGSLPVPCDPVTGFCTCRPGATGRKCDGCKHWHAREGWECVF; listed as Homo sapiens) , thanks.
12.5

MIC against M. catarrhalis lookup needed for PRT591 (CACDPHNSLSPQCNQFTGQCPCREGFGGLMCSAAAIRQCPDRTYGDVATGCRA; listed as Homo sapiens) , thanks.
50

MIC against M. catarrhalis lookup needed for PRT466 (RHTACLSSPCLNGGTCHLIVATGTTVCACPPGFAGRLCN; listed as Homo sapiens) , thanks.
50

MIC against M. catarrhalis lookup needed for PRT487 (SLCDLQPDFCLNDGKCDIMPGHGAICRCRVGENWWYRGKHCE; listed as Homo sapiens) , thanks.
25

MIC against M. catarrhalis lookup needed for PRT456 (DIDECADSEACGEARCKNLPGSYSCLCDEGFAYSSQEKACR; listed as Homo sapiens) , thanks.
12.5

MIC against M. catarrhalis lookup needed for PRT496 (CSCNNHSDTCDPNTGKCLNCGDNTAGDHCDVCTSGYYGKVTGSASDCAL; listed as Homo sapiens) , thanks.
12.5

====

Tested on: Pseudomonas aeruginosa
test description: MIC against Gram-negative bacteria: Pseudomonas aeruginosa
Assay type: cell-based
study conditions: P. aeruginosa; 10 h cultivation at 37° C.; 5×10^5 CFU/mL
recorded endpoint: MIC (μg/mL) P. aeruginosa (µg/mL)
# output: bare number, implied unit µg/mL

Study these solved cases before continuing.
substance	measured number
PRT246 (DINECTMDSHTCSHHANCFNTQGSFKCKCKQGYKGNGLRCS; listed as Homo sapiens)	12.5
PRT144 (DKKVCSSNPCQNGGTCLNLHDSFFCICPPQWKGPLCS; listed as Homo sapiens)	12.5
PRT199 (CLPETCNMKGICNNKHHCHCGYGWSPPYCQ; listed as Homo sapiens)	12.5

GET /values?readout=MIC (μg/mL) P. aeruginosa&system=Pseudomonas aeruginosa&item= PRT772 (TIVSTESLETLAPGLCQEGQIWNGKQCVCPQGYVGYQCL; listed as Homo sapiens)
12.5

====

Test system: Moraxella catarrhalis
test description: MIC against Gram-negative bacteria: Moraxella catarrhalis
Assay type: cell-based
study conditions: Moraxella catarrhalis; 96-well plate, 5×10^5 CFU/mL, 37° C., 10 h
recorded endpoint: MIC against M. catarrhalis (mg/L)
# output: bare number, implied unit mg/L

Study these solved cases before continuing.
substance	endpoint unit	MIC against M. catarrhalis
PRT1310 (EINSCLIHHGGCHIHAECIPTGPQQVSCSCREGYSGDGIRTCE; listed as Homo sapiens)	mg/L	50
PRT1294 (DFDDCQDNKCKNGAHCTDAVNGYTCICPEGYSGLFCE; listed as Homo sapiens)	mg/L	12.5
PRT1338 (EMDPCTGLTPGGCSRNAECIKTGTGTHTCVCQQGWTGNGRDCS; listed as Homo sapiens)	mg/L	12.5
PRT1233 (ISEPCPSYCSGHGDCISGVCFCDLGYTAAQGTCV; listed as Homo sapiens)	mg/L	50
PRT1288 (ADGPCHGHKCVHGQCVPLDALSYSCQCQDGYSGALCN; listed as Homo sapiens)	mg/L	50

GET /values?readout=MIC against M. catarrhalis&system=Moraxella catarrhalis&item= PRT1212 (DIDECSGNPCLHGALCENTHGSYHCNCSHEYRGRHCE; listed as Homo sapiens)
25

GET /values?readout=MIC against M. catarrhalis&system=Moraxella catarrhalis&item= PRT1205 (EHDECITNQHNCDENALCFNTVGGHNCVCKPGYTGNGTTCK; listed as Homo sapiens)
25

GET /values?readout=MIC against M. catarrhalis&system=Moraxella catarrhalis&item= PRT1277 (ETCAVNNGGCDSKCHDAATGVHCTCPVGFMLQPDRKTCK; listed as Homo sapiens)
25

GET /values?readout=MIC against M. catarrhalis&system=Moraxella catarrhalis&item= PRT1218 (DINECEREECENGGSCVNVFGSFLCNCTPGYVGQYCG; listed as Homo sapiens)
12.5

GET /values?readout=MIC against M. catarrhalis&system=Moraxella catarrhalis&item= PRT1295 (RTSPCDNFDCQNGAQCIVRINEPICQCLPGYQGEKCE; listed as Homo sapiens)
50

GET /values?readout=MIC against M. catarrhalis&system=Moraxella catarrhalis&item= PRT1296 (GCEPCHKKVCAHGTCQPSSQAGFTCECQEGWMGPLCD; listed as Homo sapiens)
12.5

GET /values?readout=MIC against M. catarrhalis&system=Moraxella catarrhalis&item= PRT1264 (DIDECGNELNGGCVHDCLNIPGNYRCTCFDGFMLAHDGHNCL; listed as Homo sapiens)
50

GET /values?readout=MIC against M. catarrhalis&system=Moraxella catarrhalis&item= PRT1223 (LEGACTRSPCQHGGTCMDYWSWQQCHCKEGLTGKYCE; listed as Homo sapiens)
50

GET /values?readout=MIC against M. catarrhalis&system=Moraxella catarrhalis&item= PRT1303 (HGLCRSVEKDSVVCECRPGWTGPLCD; listed as Homo sapiens)
12.5

====

System: Pseudomonas aeruginosa
test description: MIC against Gram-negative bacteria: Pseudomonas aeruginosa
Assay type: cell-based
study conditions: P. aeruginosa; 10 h cultivation at 37° C.; 5×10^5 CFU/mL
recorded endpoint: MIC (μg/mL) P. aeruginosa

substance	MIC (μg/mL) P. aeruginosa
PRT222 (DVDECAQALHDCRPSQDCHNLPGSYQCTCPDGYRKIGPECV; listed as Homo sapiens)	12.5 µg/mL
PRT822 (VRAGCRHSGGCLNGGLCDPHTGRCLCPAGWTGDKCQ; listed as Homo sapiens)	50 µg/mL
PRT870 (CECFGHSNRCSYIDLLNTVICVSCKHNTRGQHCELCRLGYFRNASAQLDDENVCIE; listed as Homo sapiens)	100 µg/mL
PRT884 (HSDPCENNPCLHGGTCNANGTMYGCSCDQGFAGENCE; listed as Homo sapiens)	12.5 µg/mL

MIC (μg/mL) P. aeruginosa lookup needed for PRT162 (LIDFCALSPCAHGTCRSVGTSYKCLCDPGYHGLYCE; listed as Homo sapiens) , thanks.
12.5 µg/mL
